# test_system: UniProt P23743
# Sequence (P23743 whole entry): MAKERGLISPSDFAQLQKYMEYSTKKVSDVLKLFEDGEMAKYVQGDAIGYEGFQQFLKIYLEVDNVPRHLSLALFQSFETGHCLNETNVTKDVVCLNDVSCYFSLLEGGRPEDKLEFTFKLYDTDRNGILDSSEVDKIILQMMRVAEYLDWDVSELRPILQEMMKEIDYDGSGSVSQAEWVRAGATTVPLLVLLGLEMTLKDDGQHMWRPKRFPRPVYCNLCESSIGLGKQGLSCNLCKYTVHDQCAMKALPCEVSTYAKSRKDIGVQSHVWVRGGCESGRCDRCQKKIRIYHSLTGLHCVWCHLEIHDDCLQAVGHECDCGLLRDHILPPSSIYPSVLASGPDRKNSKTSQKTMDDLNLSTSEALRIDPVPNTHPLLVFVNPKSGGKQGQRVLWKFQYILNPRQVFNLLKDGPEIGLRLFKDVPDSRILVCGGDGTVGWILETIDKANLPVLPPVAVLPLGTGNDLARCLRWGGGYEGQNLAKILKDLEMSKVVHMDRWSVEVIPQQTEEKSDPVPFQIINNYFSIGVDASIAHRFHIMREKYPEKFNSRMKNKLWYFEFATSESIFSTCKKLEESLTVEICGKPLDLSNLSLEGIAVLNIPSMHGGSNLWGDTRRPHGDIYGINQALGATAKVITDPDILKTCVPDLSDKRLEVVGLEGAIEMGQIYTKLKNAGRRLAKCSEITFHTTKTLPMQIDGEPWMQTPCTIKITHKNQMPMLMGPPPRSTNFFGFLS
# assay_name: In vitro DGKα inhibition assay (ADP-Glo)
# experimental_setup: His-tagged human recombinant enzyme, 0.1 nM DGKα, 50 μM ATP, 20 μM DLG, 90 minute incubation
Reported IC50 values for a set of molecules

Cc1nc2c(N3C[C@@H](C)N(C(c4cc(F)c(F)c(F)c4)C4CC(F)(F)C4)C[C@@H]3C)nc3nncn3c2n1C[C@@H]1CCCO1 (stereo partly drawn)
≤ 20 nM
CC[C@@H]1CN(c2nc3nncn3c3c2nnn3C[C@@H]2CCCO2)[C@@H](C)CN1C(c1ccc(Cl)cc1)c1ccc(Cl)cc1
≤ 20 nM

Could you now look at the following molecule, please?
The reported value for C[C@@H]1CN(c2nc3nncn3c3c2ncn3CCN(C)C)[C@@H](C)CN1C(c1ccc(Br)cc1)C1CC(F)(F)C1 (stereo partly drawn) in terms of IC50 is ≤ 20 nM

----------
# test_system: DGKζ (Homo sapiens (Human), UniProt Q13574)
# Sequence (Q13574 whole entry): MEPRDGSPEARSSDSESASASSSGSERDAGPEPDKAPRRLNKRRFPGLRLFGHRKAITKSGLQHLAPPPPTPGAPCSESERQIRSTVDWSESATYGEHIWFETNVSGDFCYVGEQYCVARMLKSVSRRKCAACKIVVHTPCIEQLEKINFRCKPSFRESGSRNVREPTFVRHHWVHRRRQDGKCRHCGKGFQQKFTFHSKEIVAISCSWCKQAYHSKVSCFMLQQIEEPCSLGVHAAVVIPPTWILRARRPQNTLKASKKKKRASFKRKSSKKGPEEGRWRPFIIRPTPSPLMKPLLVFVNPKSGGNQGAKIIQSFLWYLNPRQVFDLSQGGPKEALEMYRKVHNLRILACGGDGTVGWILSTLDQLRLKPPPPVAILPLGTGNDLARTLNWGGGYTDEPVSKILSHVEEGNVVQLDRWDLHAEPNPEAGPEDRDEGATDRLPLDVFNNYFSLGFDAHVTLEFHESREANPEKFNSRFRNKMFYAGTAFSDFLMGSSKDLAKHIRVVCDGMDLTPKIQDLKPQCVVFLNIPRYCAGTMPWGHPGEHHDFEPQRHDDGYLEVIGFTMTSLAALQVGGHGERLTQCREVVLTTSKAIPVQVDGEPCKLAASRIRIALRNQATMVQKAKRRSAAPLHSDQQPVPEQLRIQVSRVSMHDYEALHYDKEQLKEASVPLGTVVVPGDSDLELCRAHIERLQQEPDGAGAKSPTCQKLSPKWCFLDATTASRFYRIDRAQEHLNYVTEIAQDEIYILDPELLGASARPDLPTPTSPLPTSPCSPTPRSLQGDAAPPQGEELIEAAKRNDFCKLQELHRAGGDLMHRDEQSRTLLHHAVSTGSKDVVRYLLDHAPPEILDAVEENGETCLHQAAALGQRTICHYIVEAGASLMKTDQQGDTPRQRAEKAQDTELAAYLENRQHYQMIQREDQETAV
# assay_name: In vitro DGKζ inhibition assay (ADP-Glo)
# experimental_setup: His-tagged human recombinant enzyme, 0.4 nM DGK, 30 μM ATP, 20 μM DLG, 90 minute incubation
experimental_endpoint: IC50

Worked cases, IC50 given:
COc1ccc([C@H](c2ccc(C(F)F)cc2)N2C[C@H](C)N(c3nc4nncn4c4c3nc(C)n4C[C@@H]3CCCO3)C[C@H]2C)cc1
≤ 20 nM
Cc1nc2c(N3C[C@@H](C)N([C@H](c4cccc(C(F)(F)F)c4)C(C)C)C[C@@H]3C)nc3nncn3c2n1C[C@@H]1CCCO1
≤ 20 nM
C[C@@H]1CN(c2nc3nncn3c3c2ncn3CCN(C)C)[C@@H](C)CN1C(c1ccc(C(F)(F)F)cc1)[C@H]1C[C@H](C(F)(F)F)C1 (stereo partly drawn)
≤ 20 nM

DGKζ (Homo sapiens (Human), UniProt Q13574) IC50 of `C[C@H]1CN(C(c2ccc(F)cc2)c2ccc(F)cc2)[C@H](CC#N)CN1c1nc2nncn2c2scnc12` is ≤ 20 nM

IC50 of `C[C@@H]1CN(c2nc3nncn3c3scnc23)[C@@H](C)CN1C(c1ccc(F)cc1)c1ccc(F)cc1` , assay on DGKζ (Homo sapiens (Human), UniProt Q13574), is 20 to 200 nM

Bench note, DGKζ (Homo sapiens (Human), UniProt Q13574): Cc1nc2c(N3C[C@@H](C)N(C(c4ccc(F)c(C(F)F)c4)C4CC(F)(F)C4)C[C@@H]3C)nc3nncn3c2n1C[C@@H]1CCCO1 (stereo partly drawn) , IC50 reads ≤ 20 nM

----------
# test_system: DGKζ (Homo sapiens (Human))
# assay_name: In vitro DGKζ inhibition assay (ADP-Glo)
# experimental_setup: His-tagged human recombinant enzyme, 0.4 nM DGK, 30 μM ATP, 20 μM DLG, 90 minute incubation
pIC50: −log10 of the molar value.
experimental_endpoint: pIC50

Completed entries (count: 2):
CC[C@@H]1CN(c2nc3nncn3c3c2nc(C)n3C[C@@H]2CCCO2)[C@@H](C)CN1C(c1ccc(F)cc1)c1ccc(C#N)cc1 (stereo partly drawn) [Example 132]
≥ 7.70
CC(C)[C@H](c1ccc(Cl)cc1)N1C[C@H](C)N(c2nc3nncn3c3c2ncn3CCN(C)C)C[C@H]1C
6.70 to 7.70

Please look at the following compound next.
Form field pIC50, entry `CC[C@H]1CN(C(c2ccc(F)cc2)c2ccc(F)cc2)[C@H](CC)CN1c1nc2nncn2c2c1nnn2C[C@H]1CCCO1` : ≥ 7.70

Entry source: patent US20230399342A1
